Each recorded value in this set is attributed to ChEMBL document CHEMBL4392886.

# System: Pseudomonas aeruginosa
# TEST_SUMMARY: Antibiofilm activity against Pseudomonas aeruginosa PAO1 assessed as inhibition of biofilm formation at 0.5 times MIC incubated for 24 hrs by crystal violet staining based ELISA method
# Format: functional
RESULT_TYPE: inhibition (INH) (%)
One number for each entry, in %.

Would you please look over these solved cases?
>>> recorded_number("COc1c(O)cc2oc(-c3ccc(O)c(O)c3)c(O[C@H]3O[C@H](CO)[C@@H](O)[C@H](O)[C@H]3O[C@@H]3OC[C@](O)(CO)[C@H]3O)c(=O)c2c1O")
58.1
>>> recorded_number("COc1cc(/C=C/C(=O)O[C@H]2[C@H](O[C@H]3[C@@H](Oc4c(-c5ccc(O)c(O)c5)oc5cc(O)c(OC)c(O)c5c4=O)O[C@H](CO)[C@@H](O)[C@@H]3O)O[C@@H](C(=O)O)[C@@H](O)[C@@H]2O)ccc1O")
43
>>> recorded_number("CC1(C)S[C@@H]2[C@H](NC(=O)[C@H](N)c3ccccc3)C(=O)N2[C@H]1C(=O)O")
65.3

Each of the following entries comes with a recorded value; kindly state inhibition (INH) for each.
1. CC1(C)[C@@H](O[C@H]2OC[C@H](O)[C@H](O)[C@H]2O[C@H]2O[C@H](CO)[C@@H](O)[C@H](O)[C@H]2O[C@H]2O[C@H](CO)[C@@H](O)[C@H](O)[C@H]2O)CC[C@]2(C)[C@H]3CC=C4[C@@H]5C[C@@](C)(C=O)CC[C@]5(C(=O)O[C@H]5O[C@H](CO)[C@@H](O)[C@H](O)[C@H]5O)CC[C@@]4(C)[C@]3(C)CC[C@@H]12
2. CC1(C)[C@@H](O[C@H]2OC[C@H](O)[C@H](O)[C@H]2O[C@H]2O[C@H](CO)[C@@H](O)[C@H](O)[C@H]2OS(=O)(=O)O)CC[C@]2(C)[C@H]3CC=C4[C@@H]5C[C@@](C)(CO)CC[C@]5(C(=O)O[C@H]5O[C@H](CO)[C@@H](O)[C@H](O)[C@H]5O)CC[C@@]4(C)[C@]3(C)CC[C@@H]12
3. CC1(C)[C@@H](O[C@H]2OC[C@H](O)[C@H](O)[C@H]2O[C@H]2O[C@H](CO)[C@@H](O)[C@H](O)[C@H]2OS(=O)(=O)O)CC[C@]2(C)[C@H]3CC=C4[C@@H]5C[C@@](C)(C=O)CC[C@]5(C(=O)O[C@H]5O[C@H](CO)[C@@H](O)[C@H](O)[C@H]5O)CC[C@@]4(C)[C@]3(C)CC[C@@H]12

Reply text:
[53.4, 26.5, 56.6]

Each of the following entries comes with a recorded value; kindly state inhibition (INH) for each.
1. COc1cc(/C=C/C(=O)OC[C@@]2(O)CO[C@@H](O[C@H]3[C@@H](Oc4c(-c5ccc(O)c(O)c5)oc5cc(O)c(OC)c(O)c5c4=O)O[C@H](CO)[C@@H](O)[C@@H]3O)[C@@H]2O)ccc1O
2. CN[C@@H]1[C@H](O[C@H]2[C@H](O[C@H]3[C@H](O)[C@@H](O)[C@H](N=C(N)N)[C@@H](O)[C@@H]3N=C(N)N)O[C@@H](C)[C@]2(O)C=O)O[C@@H](CO)[C@H](O)[C@H]1O

Reply text:
1. 20.1
2. 52.5
